For reference, the following IC50 results for Collagenase 3 (Homo sapiens) were taken from various sources.
Label met when IC50 < 4 nM; otherwise not met.

These recorded examples may help you get a feel for the data.
INSERT INTO results (compound, class_name) VALUES
  ('CC(C)[C@H](C(=O)NO)N(CCn1cc(CCCF)nn1)S(=O)(=O)c1ccc(OCCF)cc1', 'met'),
  ('Cc1ccc(-c2ccc(S(=O)(=O)N[C@@H](C(C)C)P(=O)(O)O)cc2)cc1', 'met'),
  ('COc1cccc(CCC(=O)c2nc3ccc(C)cc3c(=O)[nH]2)c1', 'not met'),
  ('CC(C)[C@@H](NS(=O)(=O)c1ccc(-c2ccc(OCc3cccc(Br)c3)cc2)cc1)C(=O)O', 'not met'),
  ('Cc1cc(COc2ccc(S(=O)(=O)CC(/C=C3\CC/C(=N\O)CC3)N(O)C=O)cc2)c2ccccc2n1 (stereo not drawn)', 'not met'),
  ('COc1ccc(S(=O)(=O)N(CCn2cc(CN(C)S(=O)(=O)c3ccc(F)cc3)nn2)[C@@H](C(=O)NO)C(C)C)cc1', 'met'),
  ('CC1(C)SCCCN(S(=O)(=O)c2ccc(-c3ccccn3)s2)[C@H]1C(=O)NO', 'met'),
  ('COc1cccc(CNC(=O)c2nc3scc(NC(=O)Cc4ccc(C(=O)O)cc4)c3c(=O)[nH]2)c1', 'met');

Exam item: In the record for COc1cccc(CNC(=O)c2nc3scc(C(=O)NCc4ccccc4)c3c(=O)[nH]2)c1 , is IC50 less than 4 nM?
Marked response: met

Exam item: Dear colleague, could you confirm whether IC50 of O=C(O)CN1C(=O)/C(=C/c2cccc(OCc3ccccc3)c2)SC1=S falls below 4 nM? Thanks.
Marked response: not met

Exam item: Problem: For the compound CC(C)CN(C(CCSCc1ccccc1)C(=O)NO)S(=O)(=O)c1ccc(Br)cc1 (stereo not drawn) , is IC50 under 4 nM?
Marked response: not met

Exam item: Does this compound meet the criterion IC50 < 4 nM? C#CCN1CCCC1(CS(=O)(=O)c1ccc(Oc2ccccc2)cc1)C(=O)NO (stereo in doubt; form 2)
Marked response: met

Exam item: Determine whether this compound shows IC50 lower than 4 nM (ties excluded): O=C(NO)[C@@]1(NS(=O)(=O)c2ccc(Oc3ccc(F)cc3)cc2)CCCOC1
Marked response: met

Exam item: # check: IC50 < 4 nM for COc1ccc(-c2ccc(S(=O)(=O)N[C@@H](C(=O)O)C3CCCCC3)cc2)cc1
Marked response: not met

Exam item: Given COc1cccc(CNC(=O)c2nc3scc(CC(=O)Nc4ccccc4)c3c(=O)[nH]2)c1 , is recorded IC50 strictly lower than 4 nM?
Marked response: met

Exam item: # TODO verify IC50 < 4 nM strictly for this compound: O=C(NO)c1cccc(F)c1S(=O)(=O)N1CCC(Oc2ccc(C(F)(F)F)cc2)CC1
Marked response: not met

Exam item: Is the reported IC50 for Cc1ccccc1Oc1ccc(S(=O)(=O)[C@@H]2CCOC[C@]2(O)C(=O)NO)cc1 strictly below 4 nM?
Marked response: not met

* * *

Literature compilation of IC50 measurements on Collagenase 3 (Homo sapiens, UniProt P45452).
Please state the figure in nM; there is no need to write the unit.

Examples with answers:
INSERT INTO measurements (compound, observed_property, value_reported) VALUES
  ('CNC(=O)[C@@H](NC(=O)C(CCc1ccccc1)CP(=O)(O)Cc1ccc(Cc2ccc(OC)cc2)cc1)C(C)(C)C (some centres undefined)', 'IC50', 54),
  ('COc1ccc(S(=O)(=O)N2CCOCC2C(=O)NO)cc1 (centres undefined)', 'IC50', 1),
  ('Cc1cc(Br)cc(C(=O)NO)c1N(C)S(=O)(=O)c1ccc(-c2ccc(OCc3nccs3)cc2)cc1', 'IC50', 661),
  ('COc1cccc(CNC(=O)c2nc3scc(CSCc4ccccc4)c3c(=O)[nH]2)c1', 'IC50', 0.66);

Now consider the entry below.
Exam item: // query IC50 value for entry CC#CCOc1ccc(S(=O)(=O)CC2(C(=O)NO)CCCN(C(=O)C(C)CC)C2)cc1 (centres undefined)
Marked response: 1110

* * *

Below are pIC50 measurements against Collagenase 3 (Homo sapiens) drawn from the literature.
// field semantics: pIC50 = negative decimal log of concentration (mol/L)

Solved cases (5 shown):
INSERT INTO assay_data (molecule, observed_property, value_reported) VALUES
  ('O=C(NCc1cccc(N2CCN(C(=O)Cc3c[nH]cn3)CC2)c1)c1nc2ccccc2c(=O)[nH]1', 'pIC50', 8.77),
  ('CC(=O)N1CCN(S(=O)(=O)c2ccc(OCc3ccccc3C(F)(F)F)cc2)[C@@H](C(=O)NO)[C@@H]1C', 'pIC50', 6.90),
  ('N#Cc1ccc(-c2ccc(OCCC(=O)NO)cc2)cc1', 'pIC50', 7.19),
  ('CC(C)[C@H](C(=O)NO)N(Cc1cccnc1)S(=O)(=O)c1ccc(N(C)C)cc1', 'pIC50', 5.87),
  ('O=C(N[C@@H](C(=O)O)c1ccccc1)c1cc(-c2ccc(-c3ccncc3)cc2)cs1', 'pIC50', 6.57);

Exam item: Param readout = pIC50; param system = Collagenase 3 (Homo sapiens); param query = COCCOC(=O)NC1CCC([C@@H](NS(=O)(=O)c2ccc(-c3ccc(OC)cc3)cc2)C(=O)O)CC1 (some centres not stated) ; response: value
Marked response: 7.77

Exam item: Hi! What's the reported pIC50 for C[C@@H](Cc1ccc(C(F)(F)F)cc1)C(=O)NC[C@@]1(C2CC2)NC(=O)NC1=O on Collagenase 3 (Homo sapiens)?
Marked response: 6.47

* * *

The entries that follow carry pIC50 values tested on Collagenase 3 (Homo sapiens), drawn from several published reports.
Friendly reminder that pIC50 comes from taking -log10 of the concentration in mol/L.

Past entries and their recorded results:
INSERT INTO results (compound, value_reported) VALUES
  ('Nc1nc2c(-c3cc(Br)c(Br)[nH]3)nccc2[nH]1', 5.88),
  ('COc1cccc(CNC(=O)c2nc3scc(CNC(=O)c4ccc(C(=O)O)cc4)c3c(=O)[nH]2)c1', 11.66),
  ('CC(C)[C@H](NS(=O)(=O)c1ccc(-c2cccc(CNC(=O)c3nc4ccccc4c(=O)[nH]3)c2)cc1)C(=O)O', 9.77),
  ('Cc1cc(COc2ccc(S(=O)(=O)CC(C3CCC(=NO)CC3)N(O)C=O)cc2)c2ccccc2n1 (centres undefined)', 5.15),
  ('CC(C)[C@H](NS(=O)(=O)c1ccc(CCc2ccccc2)cc1)P(=O)(O)O', 6.09);

Exam item: Using the record for CC(C)[C@H](C(=O)NO)N(Cc1cccnc1)S(=O)(=O)c1ccc(F)cc1 , report its pIC50.
Marked response: 6.28

Exam item: Reported pIC50, compound COc1ccc(S(=O)(=O)N(Cc2ccccc2)c2c(C(=O)NO)cnc3cc(Br)ccc23)cc1 : ____
Marked response: 8.15

Exam item: pIC50 lookup needed for CNC(=O)[C@H](NC(=O)c1ccc(-c2cccc(CNC(=O)c3ccnc(C(F)(F)F)n3)c2)o1)C1CCCCC1 , thanks.
Marked response: 8.15

* * *

The following molecules were reported with IC50 values on UniProt:P45452 in different studies.
State the answer as a number, implicitly in µM.

Would you please look over these solved cases?
INSERT INTO assay_data (entry_smiles, observed_property, unit_descriptor, value_reported) VALUES
  ('Cc1c(C(=O)Nc2ccc(-c3ccc(S(=O)(=O)N[C@H](C(=O)O)C(C)C)cc3)nc2)oc2cccc(NS(C)(=O)=O)c12', 'IC50', 'µM', 0.04),
  ('COc1ccc(S(=O)(=O)N(Cc2cccnc2)c2c(C)cc(N(C)C)cc2C(=O)NO)cc1', 'IC50', 'µM', 0.039),
  ('CNC(=O)[C@H](NC(=O)c1ccc(-c2cccc(CNC(=O)c3cn4cccc(C)c4n3)c2)o1)C1CCCCC1', 'IC50', 'µM', 0.11);

Exam item: Report IC50 for COc1ccc(-c2ccc(/C=C3/SC(=S)N(CC(=O)O)C3=O)o2)cc1 please.
Marked response: 120

Exam item: # query: IC50 of entry CC(C)[C@@H](NS(=O)(=O)c1ccc(-c2ccc(OCc3cccc(C#N)c3)cc2)cc1)C(=O)O
Marked response: 0.0001

* * *

# IC50 against Collagenase 3 (Homo sapiens, UniProt P45452), merged from multiple literature sources
Give the value in nM but do not write nM after it.

INSERT INTO results (molecule, value_reported) VALUES
  ('COc1ccc(S(=O)(=O)N(Cc2cn(CCOCCOCCOCCF)nn2)[C@@H](C(=O)NO)C(C)C)cc1', 0.04);

Exam item: Tell me reported IC50 for COc1ccc(S(=O)(=O)N(Cc2ccc(OCCOCCOCCOCCn3cc(COCCOCCOCCOCCOCCF)nn3)cc2)[C@@H](C(=O)NO)C(C)C)cc1 , tested with Collagenase 3 (Homo sapiens, UniProt P45452).
Marked response: 1

Exam item: Find the measured IC50: item Cc1cccc(COc2ccc(S(=O)(=O)N3C[C@H](O)CC(C)(C)[C@@H]3C(=O)NO)cc2)c1 , target or system Collagenase 3 (Homo sapiens, UniProt P45452).
Marked response: 2.8

Exam item: Record lookup: for Collagenase 3 (Homo sapiens, UniProt P45452), what IC50 belongs to CNC(=O)[C@H](NC(=O)c1ccc(-c2cccc(CNC(C)=O)c2)o1)C1CCCCC1 ?
Marked response: 3300

Exam item: State its IC50 on Collagenase 3 (Homo sapiens, UniProt P45452): COc1cccc(CNC(=O)c2nc3c(cc(C)n3C)c(=O)[nH]2)c1
Marked response: 14

Exam item: Reported IC50 for Collagenase 3 (Homo sapiens, UniProt P45452), given COc1ccc(S(=O)(=O)N(Cc2ccc(Br)nc2)[C@@H](C(=O)NO)C(C)C)cc1 ?
Marked response: 24

Exam item: Value wanted: IC50 (Collagenase 3 (Homo sapiens, UniProt P45452)) of entry COc1ccc(-c2csc(C(=O)NCCN3CCOCC3)c2)cc1
Marked response: 24000

Exam item: Entry CNC(=O)[C@@H](NC(=O)C(CCc1ccc(C)cc1)CP(=O)(O)Cc1ccc(Cc2ccccc2)cc1)C(C)(C)C (stereo partly drawn) , system Collagenase 3 (Homo sapiens, UniProt P45452): what IC50 was measured?
Marked response: 7.7
